# Test system: MDA-MB-435
# protocol: Cytotoxicity against human MDA-MB-435 cells
# Format: functional, cell-based
readout.label: IC50 (µM)
# unit: µM | format: bare number

Ask: Name the reported IC50 value associated with the molecule "Cc1cc(C)cc(N2C(=O)NC(=O)/C(=C\c3ccc(-c4ccccc4)o3)C2=O)c1"
Reply: 3.47

---

# assayed.system: ATP-citrate synthase (Rattus norvegicus)
# protocol: Competitive inhibition of rat liver ACLY using CoA as substrate by spectrophotometric analysis
readout.label: pKi
The read-out pKi is expressed as -log10 of concentration in moles per litre.

Ask: What value of pKi on ATP-citrate synthase (Rattus norvegicus) does "CC(C)(CCCCCCCCCCC(C)(C)CC(=O)O)CC(=O)O" have?
Reply: 5.52

---

Reported pIC50 is given for each of the following compounds.
# assayed.system: Fatty acid synthase (Homo sapiens, UniProt P49327)
# Sequence (P49327 whole entry, the tested form may be a part): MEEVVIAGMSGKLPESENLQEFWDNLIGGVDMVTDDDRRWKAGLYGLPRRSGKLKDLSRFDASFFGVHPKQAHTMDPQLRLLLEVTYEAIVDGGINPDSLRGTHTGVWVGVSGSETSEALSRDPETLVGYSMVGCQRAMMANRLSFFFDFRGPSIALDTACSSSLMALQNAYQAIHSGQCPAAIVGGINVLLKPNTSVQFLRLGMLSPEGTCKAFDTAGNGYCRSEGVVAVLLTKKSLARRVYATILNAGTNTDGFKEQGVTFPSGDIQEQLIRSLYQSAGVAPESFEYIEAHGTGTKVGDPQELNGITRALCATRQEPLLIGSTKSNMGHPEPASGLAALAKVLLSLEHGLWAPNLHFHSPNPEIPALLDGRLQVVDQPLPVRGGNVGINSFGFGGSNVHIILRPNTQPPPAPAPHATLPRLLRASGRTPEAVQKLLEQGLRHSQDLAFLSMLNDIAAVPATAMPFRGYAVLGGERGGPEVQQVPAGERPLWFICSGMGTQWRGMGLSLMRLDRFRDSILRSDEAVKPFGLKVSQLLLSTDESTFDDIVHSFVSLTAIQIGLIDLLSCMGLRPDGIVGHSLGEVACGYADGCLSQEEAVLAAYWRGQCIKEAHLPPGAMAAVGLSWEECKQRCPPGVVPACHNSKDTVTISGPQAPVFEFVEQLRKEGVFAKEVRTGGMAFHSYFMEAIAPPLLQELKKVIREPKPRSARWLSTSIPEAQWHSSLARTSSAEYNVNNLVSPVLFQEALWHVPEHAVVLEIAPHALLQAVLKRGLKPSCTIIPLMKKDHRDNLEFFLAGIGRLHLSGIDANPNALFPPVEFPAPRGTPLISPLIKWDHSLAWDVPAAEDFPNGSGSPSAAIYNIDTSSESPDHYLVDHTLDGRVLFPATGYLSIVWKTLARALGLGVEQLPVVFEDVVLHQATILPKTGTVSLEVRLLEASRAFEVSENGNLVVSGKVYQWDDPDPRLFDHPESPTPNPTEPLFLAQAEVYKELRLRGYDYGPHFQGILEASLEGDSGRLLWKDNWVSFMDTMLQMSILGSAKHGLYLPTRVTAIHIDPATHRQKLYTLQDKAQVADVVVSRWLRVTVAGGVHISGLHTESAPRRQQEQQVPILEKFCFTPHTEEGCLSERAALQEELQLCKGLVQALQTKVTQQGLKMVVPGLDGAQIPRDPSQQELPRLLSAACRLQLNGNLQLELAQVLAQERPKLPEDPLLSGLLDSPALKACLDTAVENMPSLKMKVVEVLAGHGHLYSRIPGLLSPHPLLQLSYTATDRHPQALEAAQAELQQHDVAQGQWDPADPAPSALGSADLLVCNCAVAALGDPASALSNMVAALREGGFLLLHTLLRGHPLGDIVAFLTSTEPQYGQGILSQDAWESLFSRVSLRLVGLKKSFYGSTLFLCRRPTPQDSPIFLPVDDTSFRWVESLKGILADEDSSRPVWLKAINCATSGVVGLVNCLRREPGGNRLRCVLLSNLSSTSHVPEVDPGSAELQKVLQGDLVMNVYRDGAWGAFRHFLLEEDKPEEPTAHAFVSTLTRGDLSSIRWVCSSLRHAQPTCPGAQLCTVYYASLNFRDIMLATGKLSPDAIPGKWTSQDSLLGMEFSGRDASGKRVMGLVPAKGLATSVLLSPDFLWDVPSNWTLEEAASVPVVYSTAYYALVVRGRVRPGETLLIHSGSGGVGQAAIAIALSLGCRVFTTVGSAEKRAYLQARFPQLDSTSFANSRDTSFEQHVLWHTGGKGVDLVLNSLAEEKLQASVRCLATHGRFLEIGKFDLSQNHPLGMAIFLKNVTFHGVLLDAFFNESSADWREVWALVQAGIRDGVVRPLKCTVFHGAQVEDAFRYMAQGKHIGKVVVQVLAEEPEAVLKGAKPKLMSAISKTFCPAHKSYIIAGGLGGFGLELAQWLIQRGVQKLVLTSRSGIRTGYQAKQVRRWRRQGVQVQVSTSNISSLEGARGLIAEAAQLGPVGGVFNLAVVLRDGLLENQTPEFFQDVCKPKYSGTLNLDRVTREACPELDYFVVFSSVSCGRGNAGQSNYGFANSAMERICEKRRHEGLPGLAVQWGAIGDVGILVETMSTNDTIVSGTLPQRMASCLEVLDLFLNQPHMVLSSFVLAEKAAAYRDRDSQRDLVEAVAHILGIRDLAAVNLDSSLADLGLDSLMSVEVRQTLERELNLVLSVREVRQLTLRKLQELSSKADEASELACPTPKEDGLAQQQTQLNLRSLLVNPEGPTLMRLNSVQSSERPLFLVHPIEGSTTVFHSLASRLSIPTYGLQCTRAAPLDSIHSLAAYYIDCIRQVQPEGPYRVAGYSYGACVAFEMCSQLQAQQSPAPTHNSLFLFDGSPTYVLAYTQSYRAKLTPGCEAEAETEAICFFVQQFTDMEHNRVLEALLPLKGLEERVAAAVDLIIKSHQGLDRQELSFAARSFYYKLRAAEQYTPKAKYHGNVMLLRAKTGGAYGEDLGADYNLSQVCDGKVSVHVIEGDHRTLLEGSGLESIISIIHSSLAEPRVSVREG
# protocol: Inhibition of FASN in human HepG2 cells
# Format: cell-based
Note on pIC50: it is the negative log10 of concentration, concentration in mol/L.

Ask: Recorded pIC50 of "C=C/C(C)=C/[C@]1(C)SC(=O)C=C1O" , please.
Reply: 4.01

Switching to the query record.
Ask: Endpoint output: pIC50 of "C=C/C(C)=C/[C@]1(C)SC(=O)C(C)=C1O" . Value?
Reply: 3.68

---

# protocol: Inhibition of duck liver FASN ketoreductase activity
# Parameters: species or system Anas platyrhynchos
log10 of IC50 values for the molecules below.
Kindly note that the scale is log10 and the underlying IC50 is in µM.

Ask: Using the record for "O=C(/C=C/c1ccc(O)cc1)c1ccc(O)cc1O" , report its log10 of IC50.
Reply: 2.15

More entries:
Ask: Request the reported log10 of IC50 associated with "O=c1c(O)c(-c2ccc(O)cc2O)oc2cc(O)cc(O)c12"
Reply: 1.41

Ask: Look up log10 of IC50: CC(Cc1ccc(O)c(O)c1)C(C)Cc1ccc(O)c(O)c1 (stereo not given) [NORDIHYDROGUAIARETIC ACID]
Reply: 2.63

Ask: For the molecule shown here, O=C(O[C@@H]1Cc2c(O)cc(O)cc2O[C@H]1c1ccc(O)c(O)c1)c1cc(O)c(O)c(O)c1 [(-)-CATECHINGALLATE] , give the reported log10 of IC50.
Reply: 1.48

Ask: What value of log10 of IC50 has been recorded for this entry: "Oc1ccc(/C=C/c2cc(O)cc(O)c2)cc1"
Reply: 2.08

---

# assayed.system: Fatty acid synthase (Gallus gallus, UniProt P12276)
# Sequence (P12276 whole entry): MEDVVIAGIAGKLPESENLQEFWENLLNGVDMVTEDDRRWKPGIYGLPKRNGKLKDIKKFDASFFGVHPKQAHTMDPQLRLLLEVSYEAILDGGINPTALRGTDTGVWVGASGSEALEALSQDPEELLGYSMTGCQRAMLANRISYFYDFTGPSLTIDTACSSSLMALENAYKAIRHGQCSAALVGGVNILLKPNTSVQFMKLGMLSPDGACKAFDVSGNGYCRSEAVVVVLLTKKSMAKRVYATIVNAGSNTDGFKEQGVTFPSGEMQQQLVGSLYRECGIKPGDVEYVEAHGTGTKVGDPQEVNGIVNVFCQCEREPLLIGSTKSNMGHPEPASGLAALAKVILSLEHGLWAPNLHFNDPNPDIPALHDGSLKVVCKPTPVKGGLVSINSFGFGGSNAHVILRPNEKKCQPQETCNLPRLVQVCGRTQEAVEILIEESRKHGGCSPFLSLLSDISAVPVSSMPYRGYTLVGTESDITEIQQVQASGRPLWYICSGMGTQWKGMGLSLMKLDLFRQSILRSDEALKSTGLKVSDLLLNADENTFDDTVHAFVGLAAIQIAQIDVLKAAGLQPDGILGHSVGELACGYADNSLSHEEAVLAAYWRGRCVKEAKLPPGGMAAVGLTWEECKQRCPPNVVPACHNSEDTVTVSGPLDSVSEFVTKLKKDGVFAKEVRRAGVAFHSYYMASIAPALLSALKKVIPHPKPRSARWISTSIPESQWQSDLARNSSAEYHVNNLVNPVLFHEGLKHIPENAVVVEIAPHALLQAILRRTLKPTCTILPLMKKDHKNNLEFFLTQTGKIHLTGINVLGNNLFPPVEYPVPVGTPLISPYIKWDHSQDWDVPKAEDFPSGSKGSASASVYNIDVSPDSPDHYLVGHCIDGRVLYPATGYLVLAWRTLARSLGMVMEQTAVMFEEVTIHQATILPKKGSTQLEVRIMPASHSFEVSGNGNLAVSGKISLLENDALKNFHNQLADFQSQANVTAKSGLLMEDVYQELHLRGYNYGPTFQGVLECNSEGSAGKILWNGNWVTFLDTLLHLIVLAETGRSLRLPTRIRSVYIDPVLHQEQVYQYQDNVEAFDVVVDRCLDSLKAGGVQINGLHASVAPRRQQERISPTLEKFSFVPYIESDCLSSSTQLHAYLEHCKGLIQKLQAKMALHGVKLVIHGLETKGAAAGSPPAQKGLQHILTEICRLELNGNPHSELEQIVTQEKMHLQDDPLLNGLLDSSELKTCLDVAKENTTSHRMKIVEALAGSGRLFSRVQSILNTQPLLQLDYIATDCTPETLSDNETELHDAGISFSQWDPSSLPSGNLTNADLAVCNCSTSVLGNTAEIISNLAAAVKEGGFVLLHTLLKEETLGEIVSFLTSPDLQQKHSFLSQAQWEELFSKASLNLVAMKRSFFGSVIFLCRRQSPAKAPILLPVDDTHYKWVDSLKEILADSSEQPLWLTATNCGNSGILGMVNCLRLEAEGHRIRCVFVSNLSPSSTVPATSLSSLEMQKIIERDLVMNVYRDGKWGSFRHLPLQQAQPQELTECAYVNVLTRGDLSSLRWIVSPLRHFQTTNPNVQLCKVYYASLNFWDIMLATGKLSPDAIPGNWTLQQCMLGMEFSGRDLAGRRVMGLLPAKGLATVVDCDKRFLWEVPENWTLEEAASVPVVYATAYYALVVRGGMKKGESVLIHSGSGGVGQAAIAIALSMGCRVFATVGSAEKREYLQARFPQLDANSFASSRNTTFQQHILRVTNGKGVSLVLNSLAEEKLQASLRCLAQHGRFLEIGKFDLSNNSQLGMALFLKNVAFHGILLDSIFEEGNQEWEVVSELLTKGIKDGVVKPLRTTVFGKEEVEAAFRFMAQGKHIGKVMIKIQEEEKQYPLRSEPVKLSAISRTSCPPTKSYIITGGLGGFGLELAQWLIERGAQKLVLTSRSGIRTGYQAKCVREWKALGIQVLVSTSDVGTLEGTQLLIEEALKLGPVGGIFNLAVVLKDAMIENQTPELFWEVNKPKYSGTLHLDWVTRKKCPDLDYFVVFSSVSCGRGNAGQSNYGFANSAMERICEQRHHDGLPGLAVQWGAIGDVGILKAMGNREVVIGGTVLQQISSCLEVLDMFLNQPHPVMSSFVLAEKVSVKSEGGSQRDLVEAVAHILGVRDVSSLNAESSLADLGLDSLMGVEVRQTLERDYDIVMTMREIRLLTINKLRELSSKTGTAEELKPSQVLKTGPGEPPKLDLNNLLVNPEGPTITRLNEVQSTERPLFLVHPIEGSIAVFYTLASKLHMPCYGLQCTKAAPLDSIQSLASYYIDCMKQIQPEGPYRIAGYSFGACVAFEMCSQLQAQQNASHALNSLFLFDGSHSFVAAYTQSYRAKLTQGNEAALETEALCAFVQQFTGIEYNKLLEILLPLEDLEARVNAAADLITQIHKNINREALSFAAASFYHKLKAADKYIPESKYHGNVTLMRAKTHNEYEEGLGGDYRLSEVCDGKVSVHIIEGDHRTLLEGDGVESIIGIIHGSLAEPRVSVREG
# protocol: Inhibition of chicken liver FASN ketoreductase activity
readout.label: IC50 (µM)
Reply numerically in µM, unit not repeated.

Here is how some substances turned out for IC50.
Ask: // query IC50 value for entry "H-RKQEEDEDEEQQRE-OH"
Reply: 16

Ask: Reported IC50 for "H-KNPQLR-OH" : what is it?
Reply: 80

Alright, here's another substance for you.
Ask: So what does the record say about IC50 for "H-EITPEKNPQLR-OH" ?
Reply: 27

---

# assayed.system: Fatty acid synthase (Homo sapiens)
# protocol: Inhibition of FASN in human SKBR3 cells
# Type: cell-based, SK-BR-3
readout.label: pIC50
The quantity pIC50 is defined as the negative base-10 logarithm of the molar concentration.

Ask: Kindly state the measured pIC50 obtained for "CCCCC/C=C\C=C\CCCCCCCCC(=O)O" with Fatty acid synthase (Homo sapiens).
Reply: 4.00

---

This listing pairs compounds with measured IC50.
# assayed.system: Fatty acid synthase (Gallus gallus, UniProt P12276)
# protocol: Inhibition of chicken liver FASN ketoreductase activity

Would you please look over these solved cases?
Ask: Need IC50, item "C[C@H]1[C@H](C)CC[C@]2(C(=O)O)CC[C@]3(C)C(=CC[C@@H]4[C@@]5(C)CC[C@H](O)C(C)(C)[C@@H]5CC[C@]43C)[C@H]12"
Reply: 59.3 µM

Ask: Return reported IC50; argument: O=C(O[C@@H]1Cc2c(O)cc(O)cc2O[C@@H]1c1ccc(O)c(O)c1)c1cc(O)c(O)c(O)c1 [EPICATECHIN GALLATE]
Reply: 68 µM

Ask: Record request: IC50 value, item C=C1C(=O)O[C@H](CCCCCCCC)[C@H]1C(=O)O (relative stereo)
Reply: 80 µM

More entries:
Ask: I have this compound here, O=C(O[C@@H]1Cc2c(O)cc(O)cc2O[C@@H]1c1cc(O)c(O)c(O)c1)c1cc(O)c(O)c(O)c1 [EPIGALOCATECHIN GALLATE] , and I need its recorded IC50.
Reply: 100 µM

---

# assayed.system: Fatty acid synthase (Gallus gallus, UniProt P12276)
# protocol: Inhibition of chicken liver FASN after 3 hrs
readout.label: pIC50
pIC50 is defined as minus the log10 of a concentration measured in mol/L.

Ask: Report pIC50 for O=C(O[C@@H]1Cc2c(O)cc(O)cc2O[C@@H]1c1ccc(O)c(O)c1)c1cc(O)c(O)c(O)c1 [EPICATECHIN GALLATE] tested on Fatty acid synthase (Gallus gallus, UniProt P12276).
Reply: 4.38

---

# assayed.system: UniProt:P12276
# protocol: Inhibition of chicken liver FASN
The reader will find reported pIC50 values listed item by item below.
Notebook: values listed as pIC50 are -log10 of the concentration (mol/L).

Ask: Any idea what pIC50 was measured for C[C@H]1[C@H](C)CC[C@]2(C(=O)O)CC[C@]3(C)C(=CC[C@@H]4[C@@]5(C)CC[C@H](O)C(C)(C)[C@@H]5CC[C@]43C)[C@H]12 [URSOLIC ACID] ?
Reply: 4.88

---
Ask: Given the compound O=C(O[C@@H]1Cc2c(O)cc(O)cc2O[C@@H]1c1cc(O)c(O)c(O)c1)c1cc(O)c(O)c(O)c1 [EPIGALOCATECHIN GALLATE] , what is its reported pIC50?
Reply: 4.28

Ask: Reported pIC50 for O=c1c(O[C@@H]2O[C@@H](CO)[C@H](O)[C@H]2O)c(-c2ccc(O)c(O)c2)oc2cc(O)cc(O)c12 [AVICULARIN] : what is it?
Reply: 5.21

---

# assayed.system: Fatty acid synthase (Homo sapiens, UniProt P49327)
# protocol: Inhibition of human recombinant FASN thioesterase domain
readout.label: pIC50
Expect pIC50 as a plain number equal to -log10 of the molar concentration.

Ask: Field: pIC50 (Fatty acid synthase (Homo sapiens, UniProt P49327)). Entry: C=C1C(=O)O[C@H](CCCCCCCC)[C@H]1C(=O)O (relative stereo)
Reply: 4.23

---

# assayed.system: Fatty acid synthase (Homo sapiens)
# protocol: Reversible inhibition of human recombinant FASN ketoreductase site
readout.label: pIC50
Give only the number. pIC50 is defined as minus log10 of concentration in molar units.

Ask: Find the recorded pIC50 belonging to "Cc1ccnc(NS(=O)(=O)c2ccc(NC(=O)Nc3ccc(S(=O)(=O)Nc4nccc(C)n4)cc3)cc2)n1" and report it.
Reply: 7.80

---

# assayed.system: ATP-citrate synthase (Homo sapiens, UniProt P53396)
# Sequence (P53396 whole entry): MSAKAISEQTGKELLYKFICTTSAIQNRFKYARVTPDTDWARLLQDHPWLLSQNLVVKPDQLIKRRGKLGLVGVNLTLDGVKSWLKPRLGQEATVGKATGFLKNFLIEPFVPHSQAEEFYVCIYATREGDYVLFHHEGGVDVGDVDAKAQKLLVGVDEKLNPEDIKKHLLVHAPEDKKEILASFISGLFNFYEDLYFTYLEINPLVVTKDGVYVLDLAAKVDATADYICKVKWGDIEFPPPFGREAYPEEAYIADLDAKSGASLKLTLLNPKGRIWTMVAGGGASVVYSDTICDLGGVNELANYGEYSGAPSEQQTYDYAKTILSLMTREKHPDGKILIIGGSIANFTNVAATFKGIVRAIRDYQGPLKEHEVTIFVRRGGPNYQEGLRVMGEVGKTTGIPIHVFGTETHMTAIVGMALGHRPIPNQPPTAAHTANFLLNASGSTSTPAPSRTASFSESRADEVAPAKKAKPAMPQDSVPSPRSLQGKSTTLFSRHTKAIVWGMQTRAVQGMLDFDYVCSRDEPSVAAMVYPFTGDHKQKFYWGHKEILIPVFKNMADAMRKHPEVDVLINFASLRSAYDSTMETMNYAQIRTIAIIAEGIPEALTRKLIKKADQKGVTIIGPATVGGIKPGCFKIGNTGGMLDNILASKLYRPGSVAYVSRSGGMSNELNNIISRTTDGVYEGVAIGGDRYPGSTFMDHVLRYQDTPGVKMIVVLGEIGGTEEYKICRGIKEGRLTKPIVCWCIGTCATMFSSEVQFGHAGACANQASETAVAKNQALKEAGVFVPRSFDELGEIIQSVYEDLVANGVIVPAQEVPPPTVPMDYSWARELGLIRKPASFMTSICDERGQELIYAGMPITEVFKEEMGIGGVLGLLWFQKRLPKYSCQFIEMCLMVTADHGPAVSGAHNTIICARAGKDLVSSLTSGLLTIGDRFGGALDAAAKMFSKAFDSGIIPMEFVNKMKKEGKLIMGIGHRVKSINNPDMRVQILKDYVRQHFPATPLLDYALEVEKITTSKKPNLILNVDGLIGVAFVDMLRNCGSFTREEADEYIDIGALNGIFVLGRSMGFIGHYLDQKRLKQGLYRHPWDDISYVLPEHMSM
# protocol: Inhibition of human recombinant ACLY
The following molecules are listed with their measured pKi values.
Please treat pKi as minus the base-10 logarithm of the molar concentration.

Worked examples, 2 molecules total:
Ask: Return reported pKi; argument: Cc1cn(-c2cc(Cl)ccc2CCCCCC[C@H](O)C[C@@](O)(CC(=O)O)C(=O)O)cc1C (racemic)
Reply: 6.52

Ask: Which pKi value is on record for Cc1cn(-c2cc(Cl)ccc2CCCCCC[C@H](O)C[C@@](O)(CC(=O)O)C(=O)O)cc1C (stereo in doubt; 134) ?
Reply: 6.24

New cases:
Ask: What does the data say about its pKi? Entry: O=C(O)C[C@](O)(C[C@@H](O)CCCCCC1c2ccccc2-c2cc(Cl)ccc21)C(=O)O (mixture of isomers)
Reply: 6.66

Ask: Quick one: pKi for O=C(O)C[C@](O)(C[C@@H](O)CCCCCn1c(-c2ccccc2)cc2cc(Cl)ccc21)C(=O)O (racemic) ?
Reply: 6.43

Ask: // lookup pKi for Cc1cn(-c2cc(Cl)ccc2CCCCCC[C@H](O)C[C@@](O)(CC(=O)O)C(=O)O)cc1C (stereo in doubt; 135)
Reply: 6.47

Ask: Item under review: O=C(O)[C@H](O)[C@](O)(C[C@@H](O)CCCCCCc1ccc(Cl)cc1Cl)C(=O)O (racemic) . Reported pKi?
Reply: 6.21

Ask: Please report the recorded pKi for O=C(O)C[C@](O)(C[C@@H](O)CCCCCn1c2ccccc2c2cc(Cl)ccc21)C(=O)O (racemic) .
Reply: 6.15
